test system: MDA-MB-231 breast; experiment: NCI tumour cell line growth inhibition, 48 h; in the data active means GI50 below about 0.43 µM; inactive means the rest
Log the outcome using a class from active, inactive

CCC(=O)OC1CCC2C3CCC(=O)OC3C(C)(CCC(=O)O)CC12C (stereo not given)    inactive
CC(=O)OC1Oc2ccccc2-c2oc(=O)c(-c3ccc(F)cc3)cc21 (stereo not given)    inactive
CC(C)C[C@H](NC(=O)Cn1ccc(Nc2ccccc2)cc1=O)B(O)O    inactive

Alright, here's another compound for you.
Ask: What outcome does the record of this test show for C=C1C(=O)O[C@H]2[C@H]1CC/C(COC(=O)/C=C\C(=O)NCc1ccc(Cn3c(=O)sn(CCCI)c3=O)cc1)=C\CC[C@@]1(C)O[C@@H]21 ?
Reply: inactive

###

system: NCI-H522 lung; assay: NCI tumour cell line growth inhibition, 48 h; in the data active = GI50 below about 0.43 µM; inactive = the rest
Log the outcome using a class from 1 (active), -1 (inactive)

For orientation, consider the following solved cases.
C=C1C(=O)O[C@H]2[C@H]1CC/C(COC(=O)CCSSCCC(=O)OC/C1=C/CC[C@@]3(C)O[C@H]3[C@H]3OC(=O)C(=C)[C@@H]3CC1)=C\CC[C@@]1(C)O[C@@H]21    -1
[Cl-].[Nd+3].[O-]/N=C(\c1ccccc1)c1ccccn1.[O-]/N=C(\c1ccccc1)c1ccccn1.[O-]/N=C(\c1ccccc1)c1ccccn1    -1
Cc1ccc(Cl)cc1-c1nc(N)nc(Nc2ccc(Br)cc2)n1    1

Ask: What outcome does the record of this test show for O=C(Nc1ccc([As]=[As]c2ccc(NC(=O)c3ccccc3)cc2)cc1)c1ccccc1 (stereo not drawn) ?
Reply: 1

Ask: Then what about the molecule CN(C)CCCNCc1ccc(-c2ccc(F)c(Cl)c2)o1 ?
Reply: -1

###

tested on: RPMI-8226 leukemia; assay: NCI tumour cell line growth inhibition, 48 h; in the data active means GI50 below about 0.43 µM; inactive means the rest
Log the outcome using a class from label 1 = active, label 0 = inactive

Ask: What outcome does the record of this test show for CCCN(CCC)c1ccc(CO)c(Cl)c1 ?
Reply: label 0

Ask: Then what about the compound Oc1cccc(-c2nc(-c3n[nH]c(=S)n3-c3ccccc3)cc3c2[nH]c2ccccc23)c1 ?
Reply: label 0

Ask: Then what about the compound C(=C1c2ccccc2-c2ccccc21)c1ccncc1 ?
Reply: label 0

Ask: Then what about the compound COc1ccc2c(c1)[n+]([O-])c(C#N)c(NC(=O)c1cccs1)[n+]2[O-] ?
Reply: label 0

Ask: Then what about the compound Cc1cc(C2CC(O)C(CO)O2)c(Cl)cc1Cl (stereo unspecified) ?
Reply: label 0

Ask: Then what about the compound CC(C)C[C@H](NC(=O)Cn1ccc(Nc2ccccc2)cc1=O)B(O)O ?
Reply: label 1

Ask: Then what about the compound C=CC(=O)N1C[C@H](COc2nc(Nc3cnn(C)c3)nc3[nH]cc(Cl)c23)[C@@H](OC)C1 ?
Reply: label 0

Ask: Then what about the compound Nn1c2c(c3ccccc3c1=O)C(=O)c1ccccc1-2 ?
Reply: label 0

Ask: Then what about the compound Cc1nc2c(o1)C(=O)c1ccccc1C2=Nc1ccccc1 ?
Reply: label 0

Ask: Then what about the compound Cc1nn(CCO)c(C)c1N=[N+]([O-])c1c(C)nn(CCO)c1C ?
Reply: label 0

Ask: Then what about the compound OCc1ccc(N(Cc2ccc(F)cc2)CC2CC2)cc1Cl ?
Reply: label 0

###

system: UACC-257 melanoma; experiment: NCI tumour cell line growth inhibition, 48 h; in the data active = GI50 below about 0.43 µM; inactive = the rest
Log the outcome using a class from 1 (active), 0 (inactive)

Cc1nn(CCO)c(C)c1N=[N+]([O-])c1c(C)nn(CCO)c1C    0
CCCN(CCC)c1ccc(CO)c(Cl)c1    1
Nn1c2c(c3ccccc3c1=O)C(=O)c1ccccc1-2    0

Alright, here's another compound for you.
Ask: What outcome does the record of this test show for Cc1cc(C2CC(O)C(CO)O2)c(Cl)cc1Cl (centres undefined) ?
Reply: 0

###

system: SK-OV-3 ovarian; experiment: NCI tumour cell line growth inhibition, 48 h
Could you please report measured TGI for the items listed next?

Use the examples below as a reference point.
COc1ccc2c(c1)[n+]([O-])c(C#N)c(NC(=O)c1cccs1)[n+]2[O-]    > 100 µM
COc1cc2c(oc(=O)c3cc(C)cc(OC)c32)c2c(C3OC(C)C(O)C(C)(O)C3O)ccc(O)c12 (stereo not given)    4.45 µM
CC1=C2C(=O)c3ccccc3C(=O)[C@H]2C[C@@H](N2CCCC2=O)O1    > 100 µM
CCOC(=O)C(NC(=O)CC)(Nc1ccccc1OC)C(F)(F)F (stereo not given)    > 100 µM
NCCc1ccc2oc3cc(=O)c4ccccc4c-3nc2c1    24.4 µM
CC(=O)N1CCC(Nc2cc(C(=O)NC[C@H](O)CN3CCc4ccccc4C3)ncn2)CC1    > 100 µM
C=CCOC(=O)C[C@H](NC(=O)[C@H](Cc1ccc(O)cc1)NCC(F)(F)F)C(=O)OCC=C    > 100 µM
ClC1=C(Cl)C(Cl)(Cl)SS1    > 10 µM
CCCCCCCCCCC(O)CCCCCCC(=O)O (stereo not given)    > 100 µM

Please examine the following record next.
Ask: Query (compound): C[n+]1c2ccccc2c(Nc2ccc(N3CCCCC3)cc2)c2[nH]c3ccccc3c21 ; field requested: TGI
Reply: 1.85 µM

###

tested on: NCI-H522 lung; assay: NCI tumour cell line growth inhibition, 48 h
Could you please report measured GI50 for the items listed next?

Use the examples below as a reference point.
O=[N+]([O-])c1ccc2c(c1)C(=NO)c1cc([N+](=O)[O-])ccc1-2    1620 nM
COC(=O)C1=CN(CC2=CC(=O)C(C)=CC2=O)C=C(C(=O)OC)C1c1cc(OC)ccc1OC    18900 nM
CCOC(=O)/C=C1/SC(N2CCCCC2)C(=O)N1CC (stereo not given)    > 100000 nM
CCOC(=O)c1nnn(-c2no[n+]([O-])c2-c2ccc(OC)cc2)c1COc1cccc2cccnc12    510 nM
CC(=O)OC1Oc2ccccc2-c2oc(=O)c(-c3ccc(F)cc3)cc21 (stereo not given)    20200 nM

Respectfully, I request GI50 for each entry included below.
1. Oc1cccc(-c2nc(-c3n[nH]c(=S)n3-c3ccccc3)cc3c2[nH]c2ccccc23)c1
2. Cc1nc2c(o1)C(=O)c1ccccc1C2=Nc1ccccc1
3. C=C1C(=O)O[C@H]2[C@H]1CC/C(COC(=O)CCCC(=O)OC/C1=C/CC[C@@]3(C)O[C@H]3[C@H]3OC(=O)C(=C)[C@@H]3CC1)=C\CC[C@@]1(C)O[C@@H]21
4. C[CH2][Pb]([CH2]C)([CH2]C)[O]C(=O)COc1ccccc1
5. COc1cc2c(cc1OCc1ccccc1)N=CC1C[C@@H](O)CN1C2=O (stereo not given in full)

Reply:
["1800 nM", "3210 nM", "678 nM", "562 nM", "1400 nM"]

###

test system: UACC-257 melanoma; assay: NCI tumour cell line growth inhibition, 48 h
Could you please report measured TGI for the items listed next?

Use the examples below as a reference point.
O=C1C(Cl)N(c2ccc(Cl)cc2Cl)C1c1c[nH]c2ccccc12 (stereo unspecified)    > 100 µM
CN/N=C(\C)c1c(O)cc(C)oc1=O    > 100 µM
CN(C)CCCNCc1ccc(-c2ccc(F)c(Cl)c2)o1    13.8 µM

Respectfully, I request TGI for each entry included below.
1. C/C=C1\C(=O)O[C@H]2C/C(C)=C/CC/C(C)=C/CC[C@@]3(C)O[C@@H]3C[C@@H]12
2. O=C(/C=C/c1ccc(Br)cc1)c1ccc(NCc2nc3ccccc3[nH]2)cc1
3. O=C(Nc1cccc(Cl)c1)Nc1nccs1
4. CC(C)(C)c1cc(OCc2nnc3sc(-c4ccc(Cl)cc4)nn23)c(Cl)cc1OCc1nnc2sc(-c3ccc(Cl)cc3)nn12
5. O=C(Nc1ccc([As]=[As]c2ccc(NC(=O)c3ccccc3)cc2)cc1)c1ccccc1 (stereo unspecified)

Reply:
["> 100 µM", "> 63.4 µM", "61.8 µM", "40.7 µM", "1.01 µM"]

Respectfully, I request TGI for each entry included below.
1. CC(C)C[C@H](NC(=O)Cn1ccc(Nc2ccccc2)cc1=O)B(O)O
2. COc1cc(/C=C2\N=C(c3ccccc3)N(c3nc4ccc(Sc5ccccc5)cc4[nH]3)C2=O)ccc1O
3. COc1ccc(CCCNC(=O)Cc2cc(OC)c(OC)cc2CO)cc1OC
4. Cc1cc(Oc2ccccc2)ccc1Nc1ncnc2ccc(-c3cnc(Cl)c(NS(C)(=O)=O)c3)cc12
5. Nc1ccc(S(=O)(=O)Nc2cnc3ccccc3n2)cc1
6. CC(=O)N(O)CCCCCNC(=O)CCC(=O)N(O)CCCCCNC(=O)CCC(=O)N(O)CCCCCN

Reply:
1. 7.68 µM
2. 47.1 µM
3. > 100 µM
4. 8.26 µM
5. > 100 µM
6. > 100 µM

Respectfully, I request TGI for each entry included below.
1. CCCNc1[nH]c(C(=O)c2ccccc2)c(N)c1C(=S)Nc1ccccc1
2. CC(=O)N1CCC(Nc2cc(C(=O)NC[C@H](O)CN3CCc4ccccc4C3)ncn2)CC1
3. CC1(C)C2CCC13C(=O)C1OC3(C2)C2C(=O)N(c3ccccc3)C(=O)C12 (stereo unspecified)
4. Cc1ccc(Cc2nc(=S)[nH][nH]2)cc1
5. CCOC(=O)/C(C#N)=C/c1ccc(SCc2ccco2)c([N+](=O)[O-])c1
6. CN(C)CCCn1c2c(c3ccc(-c4ccn[nH]4)cc3c1=O)C(=O)c1ccccc1-2

Reply:
["> 100 µM", "> 100 µM", "> 100 µM", "> 100 µM", "> 100 µM", "29.1 µM"]

Ask: Query (compound): CCCNC(=S)N=Nc1c(O)[nH]c2ccccc12 ; field requested: TGI
Reply: > 100 µM

Ref: PubChem BioAssay (NCI)
